system: SNB-75 CNS; assay: NCI tumour cell line growth inhibition, 48 h
Recorded Metric: TGI

Example compounds with recorded TGI:
Compound	Experimental System	TGI
O=C1CSc2cc([N+](=O)[O-])ccc2N1	SNB-75 CNS	> 100 µM
Nc1ncc(-c2cccc(S(N)(=O)=O)c2)c2scc(-c3ccc(F)c(Cl)c3)c12	SNB-75 CNS	> 23 µM
O=c1ccc2ccc(O)cc2o1	SNB-75 CNS	> 100 µM
CCOC(=O)C(NC(=O)OC(C)(C)C)C(=O)OCC	SNB-75 CNS	> 100 µM
NC(N)=NCCCC(NC(=O)OCCCCn1ccc(N)nc1=O)C(=O)O (configuration not stated)	SNB-75 CNS	> 100 µM

Task: What value of measured TGI is listed for Oc1cc(Br)cc2cc(Cl)cnc12 ?
Result: > 90.3 µM

Task: What value of TGI has been reported for the following compound? C=CC(C)(C)C(=C)C(=O)Nc1ccccc1I
Result: > 100 µM

====

system: UACC-257 melanoma; assay: NCI tumour cell line growth inhibition, 48 h
Recorded Metric: TGI

Task: Find the recorded TGI belonging to CC1(C)C(=O)/C(=C\c2cccnc2)C[C@]2(C)[C@H]3CC[C@@H]4[C@@H](C(=O)/C=C/c5ccncc5)CC[C@@]4(C)[C@]3(C)CC[C@@H]12 and report it.
Result: 4.44 µM

Task: Name the reported TGI value associated with the molecule NC(CSSCC(N)Cc1ccccc1)Cc1ccccc1 (stereo not drawn)
Result: > 100 µM

Task: Given Cc1cccc2c(O)cc(=O)oc12 , state its recorded TGI.
Result: > 100 µM

====

tested on: UO-31 renal; test: NCI tumour cell line growth inhibition, 48 h
Recorded Metric: TGI

Below: 2 compounds and their reported TGI.
Compound	Recorded Metric	Assay Result
COc1ccc(Nc2nc(N)c(C(=O)c3cccs3)s2)cc1	TGI	> 41.1 µM
CC(=O)/C(=C/N1CCNC1=S)C(=O)Nc1ccccc1C	TGI	> 100 µM

Task: TGI of O=c1ccc2ccc(O)cc2o1 on UO-31 renal?
Result: > 100 µM

Task: For UO-31 renal, provide TGI of C=C(c1ccccc1)c1ccccc1-c1cc(-c2ccccc2)cc(-c2ccccc2)n1 please.
Result: > 100 µM

Task: Give recorded TGI with UO-31 renal for the following compound: O=C(O)Cn1cc([N+](=O)[O-])c(=O)c2ccccc21
Result: > 100 µM

Task: For the record CC1(C)N=C(c2ccccn2)C(c2ccccn2)=NC1(C)C , what value of TGI is listed for UO-31 renal?
Result: > 100 µM

====

system: 786-0 renal; assay: NCI tumour cell line growth inhibition, 48 h
Recorded Metric: TGI

Smiles Str	Experimental System	Assay Result
Cc1cccc2c(O)cc(=O)oc12	786-0 renal	> 100 µM
CN(C)CCCn1c(-c2nonc2N)nc2cnccc21	786-0 renal	> 25 µM

Here is another compound to look at.
Task: Find the recorded TGI belonging to Brc1cc2c(cc1Br)CN(c1ccccc1)C2 and report it.
Result: > 100 µM

====

tested on: MDA-MB-435; assay: NCI tumour cell line growth inhibition, 48 h
TGI values by entry

Compound	Experimental System	Assay Result
O=C(O)C(=O)/C=C(\O)c1ccc(Br)cc1	MDA-MB-435	> 100 µM

Task: State its TGI on MDA-MB-435: O=C(O)C(Oc1nc(=S)[nH]c(=S)[nH]1)(c1ccc(Cl)cc1)c1ccc(Cl)cc1
Result: > 100 µM

Task: Could you share what TGI was measured for C=CCn1c(-c2ccc([N+](=O)[O-])cc2)csc1=N , tested on MDA-MB-435?
Result: > 100 µM

Task: Under MDA-MB-435: TGI value of CCOC(=O)[C@@H]1ON2OC(OC3CCCC3(c3ccccc3)c3ccccc3)C(OC(C)=O)[C@H]3OC(=O)[C@@H]1C32 (stereo partly specified) ?
Result: > 100 µM

Task: Observed TGI on MDA-MB-435 for Oc1ccc(Cl)cc1C1=NC(/N=C\c2ccccc2)=NC(c2ccccc2)C1 (stereo unspecified) , please.
Result: > 100 µM

Task: Reported TGI for MDA-MB-435, given O=C(CSc1nc2ccccc2c(=O)n1-c1ccccc1)N=Nc1c(O)[nH]c2ccc(F)cc12 ?
Result: > 100 µM

These data points were gathered from PubChem BioAssay (NCI).
